METHOD_NOTES: NCI Yeast Anticancer Drug Screen. Data for the mlh1 rad18 strain (AID 175)
MEASUREMENT_PARAMETERS: S. cerevisiae mlh1 rad18 strain growth inhibition; at 5.0 µM (retest, dose inferred, filed as 0.5)
Compounds without any hit were thinned out: in the full panel of roughly 79,000, 15% have a hit. The source made the active and inactive calls. No stated cut-off is given here; in the data, active means growth inhibition above about 70%; inactive means the rest.
The reply should name one outcome from active, inactive

[[record]]
compound = "Cc1ccc(NN(NC(=O)OC(C)C)C(=O)OC(C)C)cc1"
category = "inactive"

[[record]]
compound = "CC1C(NNc2ccccc2)Oc2cc3c(cc2C1c1ccccc1O)OCO3 (stereo unspecified)"
category = "active"

[[record]]
compound = "S=C(N/N=C(/c1ccccc1)c1ccccn1)N1CCCCCC1"
category = "active"

[[record]]
compound = "c1ccc2c(c1)C(=NCCCN1CCCCCC1)c1cccn1-2"
category = "inactive"

[[record]]
compound = "Cc1ccc2ccc3cccc4ccc1c2c34"
category = "inactive"


Switching to the query record.
# fetch the recorded call for CCCCN(CCCC)CCSc1ccc(Cl)cc1 here
inactive

====

METHOD_NOTES: NCI Yeast Anticancer Drug Screen. Data for the CLN2oe strain (AID 163)
MEASUREMENT_PARAMETERS: S. cerevisiae CLN2oe strain, at 11.0 µM
The panel holds about 79,000 compounds, 15% with a hit somewhere; the sample as a whole holds those more often. Calls of active or inactive are those of the source. No stated cut-off is given here; in the data, active means growth inhibition above about 70%; inactive means the rest.
Outcomes you can answer with include only these: active, inactive

Example entries and their recorded answers appear below.
[[record]]
molecule = "CO[C@H]1C[C@](C)(O)Cc2cc3c(c(O)c21)C(=O)c1c(O)cc2c(c1C3=O)O[C@@H]1O[C@@]2(C)[C@H](O)[C@@H](N(C)C)[C@@H]1O"
category = "inactive"

[[record]]
molecule = "CC(=O)OC1CCC2(C)C(=CCC3C4CCC5(OC6CC(C)CN(C(C)=O)C6C5C)C(C)=C4C(=O)C32)C1 (stereo unspecified)"
category = "inactive"

[[record]]
molecule = "COC(=O)C1=C(C)NC(C)=C(C(=O)OC)C1c1cccc(/[N+]([O-])=C/c2ccccc2)c1"
category = "inactive"

[[record]]
molecule = "CC(=O)OCCOCNC(=S)N/N=C(\\C)c1cnccn1"
category = "inactive"

[[record]]
molecule = "CCN(CC)CCC(=O)c1ccc(Oc2ccc(F)cc2)cc1"
category = "inactive"


What call does the record list for O=C(c1ccc(Cl)cc1)C1OC12C(=O)Nc1ccccc12 (stereo unspecified) ?
active

Please indicate how the test categorized [O-][n+]1c2ccc(O)cc2nc2ccc(Br)cc21 .
inactive

Outcome? O=C1Nc2ccccc2/C1=C/COc1ccccc1
inactive

Answer briefly: the call reported for CSc1nc(=S)[nH]c2c1c(C)nn2-c1ccccc1 in this assay.
inactive

Any idea what this test logged for CCN(CC)CCN1C(=O)c2cccc3cc(OC)cc(c23)C1=O ?
inactive

Each molecule tested received a call. Report the one for CCCCN(CCCC)CCSc1ccc(Cl)cc1 .
inactive

====

METHOD_NOTES: NCI Yeast Anticancer Drug Screen. Data for the mec2-1 strain (AID 157)
MEASUREMENT_PARAMETERS: S. cerevisiae mec2-1 strain, at 100.0 µM, stronger effect = higher value
About 79,000 compounds went through this panel and 15% of them were active in at least one assay; those are over-represented in the sample as a whole.
# class assignment by measured growth inhibition: low: < 60%; moderate: ≥ 60% and < 90%; high: ≥ 90%

Take a look at these entries with their results.
[[record]]
compound = "CCNc1nnc(CSc2nc(-c3ccccc3)c(-c3ccccc3)[nH]2)s1"
category = "moderate"

[[record]]
compound = "S=C(N/N=C(/c1ccccc1)c1ccccn1)N1CCCCCC1"
category = "low"

[[record]]
compound = "Nc1ccn(C2OC(CO)C3[O][Sn]([c]4ccccc4)([c]4ccccc4)[O]C32)c(=O)n1 (stereo unspecified)"
category = "low"


Sort into band: C=C(CN(C)C)C(=O)c1cc(C)ccc1C
high

Returns: class label. Input: CC(=O)OCC(=O)C1(O)CCC2C3CCC4CCCCC4(C)C3CCC21C (stereo unspecified)
moderate

Hey, which category is COc1ccc2nc3cccc([N+](=O)[O-])c3c(NCCN(CCO)CCO)c2c1 in, do you know?
high

Into which bin does this compound go? Fc1ccc(NC(=S)SCc2ccc3c(c2)OCO3)cc1F
high

Categorize the following entry: CCC/C(Cl)=N\OC(=O)Nc1cccc(C(F)(F)F)c1
low
